System under test: T1, hCol2 (human Type II collagen) (Homo sapiens, UniProt P02458)
T1 construct: purchased Chondrex
T1 sequence (P02458 182-1241): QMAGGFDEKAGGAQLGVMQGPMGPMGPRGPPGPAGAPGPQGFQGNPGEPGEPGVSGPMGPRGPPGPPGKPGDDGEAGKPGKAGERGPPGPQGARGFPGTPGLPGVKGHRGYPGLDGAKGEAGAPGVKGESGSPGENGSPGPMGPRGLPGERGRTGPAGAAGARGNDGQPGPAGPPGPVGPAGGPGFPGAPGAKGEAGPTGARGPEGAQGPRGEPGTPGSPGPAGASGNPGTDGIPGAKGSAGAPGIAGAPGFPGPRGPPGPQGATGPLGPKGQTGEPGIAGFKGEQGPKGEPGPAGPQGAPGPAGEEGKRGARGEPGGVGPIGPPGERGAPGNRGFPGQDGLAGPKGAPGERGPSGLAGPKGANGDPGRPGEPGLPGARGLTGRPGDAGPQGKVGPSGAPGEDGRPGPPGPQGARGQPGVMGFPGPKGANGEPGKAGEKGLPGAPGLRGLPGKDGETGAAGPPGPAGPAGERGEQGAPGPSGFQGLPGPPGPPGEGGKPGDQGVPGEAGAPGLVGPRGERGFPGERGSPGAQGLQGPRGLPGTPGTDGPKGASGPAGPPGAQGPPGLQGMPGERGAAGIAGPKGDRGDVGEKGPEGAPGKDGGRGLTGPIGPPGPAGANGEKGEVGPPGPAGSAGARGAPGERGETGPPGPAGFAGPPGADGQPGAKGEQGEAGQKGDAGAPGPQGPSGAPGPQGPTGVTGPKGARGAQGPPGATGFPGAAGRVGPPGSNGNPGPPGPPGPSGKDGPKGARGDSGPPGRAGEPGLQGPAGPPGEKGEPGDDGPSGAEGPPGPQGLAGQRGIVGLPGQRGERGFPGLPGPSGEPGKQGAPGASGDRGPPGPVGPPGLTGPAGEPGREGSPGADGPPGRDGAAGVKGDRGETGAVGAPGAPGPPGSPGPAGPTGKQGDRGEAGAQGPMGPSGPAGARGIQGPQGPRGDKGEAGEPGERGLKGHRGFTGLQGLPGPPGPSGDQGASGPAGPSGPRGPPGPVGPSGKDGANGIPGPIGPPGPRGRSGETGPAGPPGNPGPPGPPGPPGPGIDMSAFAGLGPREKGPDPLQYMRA
Experiment: Binding analysis by SPR (Biacore 3000) vs human type II collagen
Condition description: dimers or tetramers; Langmuir 1:1 model
Procedure: Proteins with affinity tag were purified by affinity chromatography and size exclusion. […] Homogenous species of all purified ligands were obtained; no aggregation was detected. Following SOS-PAGE analysis positive fractions were pooled and their protein concentrations were measured. […] Protein concentrations were determined by absorbance measurement at 280 nm using the molar absorbent coefficient. […] Binding of Collagen II was evaluated by SPR measurements using a Biacore 3000 system. […]
Endpoint: Affinity [SPR] vs hCol2 (nM)
Respond with the bare value in nM.

# example entries with known answers
Molecule: CID 211519: homodimer of SEQ ID NO: 11 (protein, Col2 binding protein (dimer) 211519) IAAKFDEAQQAAFYEILHLPNLTEQQRNYFIQWLRDDPSVSPTVLGTAQQLNDSQAPKIAAKFDEAQQAAFYEILHLPNLTEQQRNYFIQWLRDDPSVSPTVLGTAQQLNDSQAPK
U: nM
Affinity [SPR] vs hCol2: 784
--
Molecule: CID 211999: dimer of SEQ ID NO: 2 (dimer of directly joint monomers) (protein, Col2 binding protein (dimer of 211261) (CID211999)) IAAKFDEAQSAADSEILHLPNLTEQQRHYFRRWLSDDPSVSTHILTQAQHLNDDQAPKIAAKFDEAQSAADSEILHLPNLTEQQRHYFRRWLSDDPSVSTHILTQAQHLNDDQAPKSAWSHPQFEK
U: nM
Affinity [SPR] vs hCol2: 127

Challenge: For CID 210987: hetero-dimeric binding protein comprising SEQ ID NO: 10 and SEQ ID NO: 6 linked head-to-tail (protein, Col2 binding protein (dimer) 210987) IAAKFDEAQQAAFYEILHLPNLTEQQRNYFIQWLRDDPSVSLEVLGTAQRLNDSQAPKIAAKFDEAQQLAFYQILHLENLTEEQRNAFIQSLRDDPSVSLEVLGEAIKLNLSQAPK , what is its reported Affinity [SPR] vs hCol2?
Response given: 169
